Molecular target: T1, IL-18 binding protein (IL-18BP) (UniProt O95998 31-194); note: unit not given here
T1 sequence (looked up): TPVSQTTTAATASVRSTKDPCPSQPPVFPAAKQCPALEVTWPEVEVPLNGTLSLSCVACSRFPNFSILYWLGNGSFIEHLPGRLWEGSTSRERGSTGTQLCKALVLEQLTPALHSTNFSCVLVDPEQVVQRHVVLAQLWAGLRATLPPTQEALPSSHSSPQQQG
Assay: cell-based or functional assay
readout_kind: Activity, +100 nM BP, DF-25000004
Give bare numbers.

Some solved cases for reference:
[
  {
    "binder": "IL-18 variant G3E, E6G, N91M, R104A (ligand) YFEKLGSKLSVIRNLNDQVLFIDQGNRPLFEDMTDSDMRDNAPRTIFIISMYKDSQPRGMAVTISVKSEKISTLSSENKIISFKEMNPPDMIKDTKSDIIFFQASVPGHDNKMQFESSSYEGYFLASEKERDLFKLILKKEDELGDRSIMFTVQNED",
    "recorded_number": 0.53
  },
  {
    "binder": "IL-18 variant K53T, D54H, S55V, T63A, N91K (ligand) YFGKLESKLSVIRNLNDQVLFIDQGNRPLFEDMTDSDMRDNAPRTIFIISMYTHVQPRGMAVAISVKSEKISTLSSENKIISFKEMNPPDKIKDTKSDIIFFQRSVPGHDNKMQFESSSYEGYFLASEKERDLFKLILKKEDELGDRSIMFTVQNED",
    "recorded_number": 0.07
  }
]

Look up Activity, +100 nM BP, DF-25000004: IL-18 variant G3S, E6Q, K53N, D54T, S55N, T63A, I80T, N91S (ligand) YFSKLQSKLSVIRNLNDQVLFIDQGNRPLFEDMTDSDMRDNAPRTIFIISMYNTNQPRGMAVAISVKSEKISTLSSENKTISFKEMNPPDSIKDTKSDIIFFQRSVPGHDNKMQFESSSYEGYFLASEKERDLFKLILKKEDELGDRSIMFTVQNED 0.11
